# System tested: HLA-A*01:01
# Assay summary: IEDB peptide-MHC binding, purified MHC/competitive/radioactivity; filed as Kd, often an IC50 or EC50 that approximates it; bounds were set here for any values at or beyond the usual limits of such assays
# Recorded conditions: source organism: Dengue virus 1 Brazil/97-11/1997
pKd: −log10 of the molar value.
# cutoff 5 applies to pKd; >= gives met, < gives not met

ATLLAVSGVY: met
LIGNENYLDY: met
LTGGVTLFF: not met

Please look at the following sequence next.
Does ETEPPFGESY have a reported pKd of at least 5?
met

====

# System tested: HLA-A*68:01
# Assay summary: IEDB peptide-MHC binding, purified MHC/competitive/radioactivity; filed as Kd, often an IC50 or EC50 that approximates it; bounds were set here for any values at or beyond the usual limits of such assays
# Recorded conditions: source organism: Mopeia Lassa virus reassortant 29
Reported metric: Kd
Number first, unit second: that is the form wanted.

# get_value(readout='Kd', item= LTKFVAAALH )
164 nM

====

# System tested: HLA-B*27:05
# Assay summary: IEDB peptide-MHC binding, purified MHC/direct/fluorescence; filed as Kd, often an IC50 or EC50 that approximates it; bounds were set here for any values at or beyond the usual limits of such assays
# Recorded conditions: source organism: Salmonella enterica
pKd: −log10 of the molar value.
Reported metric: pKd

Param readout= pKd; system= HLA-B*27:05; entry= EHFYWGSVF ; returns value.
≤ 4.70

====

# System tested: HLA-C*14:02
# Assay summary: IEDB peptide-MHC binding, purified MHC/competitive/fluorescence; filed as Kd, often an IC50 or EC50 that approximates it; bounds were set here for any values at or beyond the usual limits of such assays
# Recorded conditions: source organism: Giardia lamblia ATCC 50803
Reported metric: pKd
Scale: pKd equals -log10([C]), with [C] in mol/L.

# get_value(readout='pKd', item= MTYLDGHPV )
7.52

====

# System tested: HLA-B*45:06
# Assay summary: IEDB peptide-MHC binding, purified MHC/competitive/fluorescence; filed as Kd, often an IC50 or EC50 that approximates it; bounds were set here for any values at or beyond the usual limits of such assays
# Recorded conditions: source organism: Burkholderia mallei SAVP1
pKd: −log10 of the molar value.
Reported metric: pKd

Param readout= pKd; system= HLA-B*45:06; entry= MALATGLWW ; returns value.
≤ 5.30

====

# System tested: HLA-A*11:01
# Assay summary: IEDB peptide-MHC binding, purified MHC/competitive/fluorescence; filed as Kd, often an IC50 or EC50 that approximates it; bounds were set here for any values at or beyond the usual limits of such assays
# Recorded conditions: source organism: Cryptosporidium parvum Iowa II
Reported metric: Kd

# get_value(readout='Kd', item= FTWQHNYYL )
≥ 5 µM

====

# System tested: HLA-A*02:01
# Assay summary: IEDB peptide-MHC binding, purified MHC/direct/fluorescence; filed as Kd, often an IC50 or EC50 that approximates it; bounds were set here for any values at or beyond the usual limits of such assays
# Recorded conditions: source organism: Rickettsia conorii
Reported metric: Kd (µM)
Write the number in µM without appending the unit.

Param readout= Kd; system= HLA-A*02:01; entry= KLNENIIRF ; returns value.
1.88

====

# System tested: HLA-A*02:01
# Assay summary: IEDB peptide-MHC binding, purified MHC/competitive/radioactivity; bounds were set here for any values at or beyond the usual limits of such assays
# Recorded conditions: source organism: Rhinovirus A
Reported metric: IC50

# get_value(readout='IC50', item= VLEKGIPTL )
200 nM

====

# System tested: HLA-C*06:02
# Assay summary: IEDB peptide-MHC binding, purified MHC/direct/fluorescence; filed as Kd, often an IC50 or EC50 that approximates it; bounds were set here for any values at or beyond the usual limits of such assays
# Recorded conditions: source organism: Giardia lamblia ATCC 50803
Reported metric: Kd

# get_value(readout='Kd', item= RYYLSFFHI )
≥ 20 µM

====

# System tested: HLA-B*51:01
# Assay summary: IEDB peptide-MHC binding, purified MHC/competitive/fluorescence; filed as Kd, often an IC50 or EC50 that approximates it; bounds were set here for any values at or beyond the usual limits of such assays
# Recorded conditions: source organism: Plesiomonas shigelloides
Reported metric: Kd

# get_value(readout='Kd', item= LLFRMILNY )
≥ 20 µM

====

# System tested: HLA-A*24:03
# Assay summary: IEDB peptide-MHC binding, purified MHC/direct/fluorescence; filed as Kd, often an IC50 or EC50 that approximates it; bounds were set here for any values at or beyond the usual limits of such assays
# Recorded conditions: source organism: Pseudomonas aeruginosa UCBPP-PA14
Reported metric: Kd

# get_value(readout='Kd', item= RDYRTISPR )
≥ 20 µM

====

# System tested: HLA-A*03:01
# Assay summary: IEDB peptide-MHC binding, purified MHC/direct/fluorescence; filed as Kd, often an IC50 or EC50 that approximates it; bounds were set here for any values at or beyond the usual limits of such assays
# Recorded conditions: source organism: Rickettsia conorii
Reported metric: Kd
Number first, unit second: that is the form wanted.

Param readout= Kd; system= HLA-A*03:01; entry= KLNENIIRF ; returns value.
554 nM

====

Below is a list of entries, each paired with its recorded Kd value.
# System tested: HLA-B*45:01
# Assay summary: IEDB peptide-MHC binding, purified MHC/competitive/radioactivity; filed as Kd, often an IC50 or EC50 that approximates it; bounds were set here for any values at or beyond the usual limits of such assays
# Recorded conditions: source organism: Mammarenavirus lassaense

DEADLDEILL: ≥ 45 µM

# get_value(readout='Kd', item= FDAAVMGGF )
≥ 77.7 µM

====

# System tested: HLA-A*02:01
# Assay summary: IEDB peptide-MHC binding, purified MHC/direct/fluorescence; filed as Kd, often an IC50 or EC50 that approximates it; bounds were set here for any values at or beyond the usual limits of such assays
# Recorded conditions: source organism: Influenza A virus (A/Puerto Rico/8/34/Mount Sinai(H1N1))
Reported metric: Kd (nM)
Write the number in nM without appending the unit.

# get_value(readout='Kd', item= VTTEVAFGL )
69

====

# System tested: HLA-A*29:02
# Assay summary: IEDB peptide-MHC binding, purified MHC/competitive/radioactivity; filed as Kd, often an IC50 or EC50 that approximates it; bounds were set here for any values at or beyond the usual limits of such assays
# Recorded conditions: source organism: SARS coronavirus Tor2
Below is a list of entries, each paired with its recorded pKd value.
Scale: pKd equals -log10([C]), with [C] in mol/L.

Example cases with answers are listed next.
VSVKMFDAY: 7.12
KWDLLKYDF: 8.31

Param readout= pKd; system= HLA-A*29:02; entry= GTGPEASLPY ; returns value.
6.93

Param readout= pKd; system= HLA-A*29:02; entry= ELSPRWYFYY ; returns value.
8.10

Param readout= pKd; system= HLA-A*29:02; entry= FSSLPSYAAY ; returns value.
8.05

Param readout= pKd; system= HLA-A*29:02; entry= VVAIDYRHY ; returns value.
7.19

====

# System tested: HLA-A*31:01
# Assay summary: IEDB peptide-MHC binding, purified MHC/direct/fluorescence; filed as Kd, often an IC50 or EC50 that approximates it; bounds were set here for any values at or beyond the usual limits of such assays
# Recorded conditions: source organism: Campylobacter jejuni
pKd: −log10 of the molar value.
Reported metric: pKd

VFKVKLHEI: ≤ 4.70

Moving on to the next sequence.
Param readout= pKd; system= HLA-A*31:01; entry= VKKLWGHLP ; returns value.
≤ 4.70

====

# System tested: HLA-B*39:01
# Assay summary: IEDB peptide-MHC binding, purified MHC/direct/fluorescence; filed as Kd, often an IC50 or EC50 that approximates it; bounds were set here for any values at or beyond the usual limits of such assays
# Recorded conditions: source organism: Yersinia pestis CA88-4125
Reported metric: Kd

# get_value(readout='Kd', item= QQRPDLILV )
≥ 20 µM

====

# System tested: HLA-B*58:01
# Assay summary: IEDB peptide-MHC binding, purified MHC/direct/fluorescence; filed as Kd, often an IC50 or EC50 that approximates it; bounds were set here for any values at or beyond the usual limits of such assays
# Recorded conditions: source organism: Listeria monocytogenes
Reported metric: pKd
Scale: pKd equals -log10([C]), with [C] in mol/L.

Param readout= pKd; system= HLA-B*58:01; entry= KAAETYHVF ; returns value.
7.66

====

# System tested: HLA-B*48:01
# Assay summary: IEDB peptide-MHC binding, purified MHC/direct/fluorescence; filed as Kd, often an IC50 or EC50 that approximates it; bounds were set here for any values at or beyond the usual limits of such assays
# Recorded conditions: source organism: Camelpox virus M-96
pKd: −log10 of the molar value.
Below is a list of entries, each paired with its recorded pKd value.

KVFDKSLLY: ≤ 4.70

Param readout= pKd; system= HLA-B*48:01; entry= TESDAIRTL ; returns value.
≤ 4.70

Param readout= pKd; system= HLA-B*48:01; entry= YQYIFLSFF ; returns value.
≤ 4.70
